Protein target, amino acids: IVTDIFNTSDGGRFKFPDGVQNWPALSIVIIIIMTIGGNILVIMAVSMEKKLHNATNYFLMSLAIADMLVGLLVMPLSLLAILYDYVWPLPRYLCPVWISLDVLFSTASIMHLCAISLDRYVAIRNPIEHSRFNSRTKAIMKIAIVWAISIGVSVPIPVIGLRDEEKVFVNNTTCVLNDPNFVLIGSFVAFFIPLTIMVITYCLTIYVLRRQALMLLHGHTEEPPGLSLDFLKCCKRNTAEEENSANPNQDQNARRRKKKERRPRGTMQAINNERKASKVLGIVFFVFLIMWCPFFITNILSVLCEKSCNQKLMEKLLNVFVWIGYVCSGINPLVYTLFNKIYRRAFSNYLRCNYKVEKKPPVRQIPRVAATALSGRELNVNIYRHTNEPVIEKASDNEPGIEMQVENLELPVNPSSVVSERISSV
measuredProperty: pKi
Scale for pKi: -log10 of concentration given in mol/L; no unit attached.

What value of pKi has been recorded for this entry: CC(C)(C)c1cc(C(C)(C)C)c(NC(=O)c2c[nH]c3ccccc3c2=O)cc1O 6.06
